src = PubChem BioAssay AID1446

- Experiment: viability loss in Ba/F3 EpoR-JAK2V617F cells – cell-based, luminescence, JAK2V617F inhibitor project, primary screen (AID 1446);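 also: cytokine-independent growth of Ba/F3 cells driven by EpoR plus mutant JAK2; 0% = DMSO-treated cells and 100% = JAK inhibitor I control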
- Experimental Parameters: ATP luminescence, at 5.6 µM, active compounds read high
About 2,400 (1.1%) of roughly 220,000 compounds were called active. The sample as a whole holds a higher share of actives than the screen did.
Recorded Endpoint: inhibition (%)
Output spec: scalar in %, unitless text.

Previously resolved entries follow.
CCN(CC)C(=O)Oc1ccc(Br)cc1C(=O)Nc1ccc(F)c(Cl)c1	-0.45
Cc1ccc(N(C(=O)Cc2cccs2)C2C=CS(=O)(=O)C2)cc1Cl (configuration not stated)	3.93
CCCc1nc2ccccc2c(=O)n1/N=C/c1ccc(O)c(O)c1	26.5
Cc1ccc(S(=O)(=O)N2CCOCC2)cc1C(=O)OC1CCCCC1=O (configuration not stated)	0.06
Cc1nnc(N/N=C/c2ccccn2)[nH]c1=O	-4.34

// recorded inhibition for CC(=O)Nc1ccc(Nc2c3ccccc3nc3ccccc23)cc1 : 102

// recorded inhibition for NNC(=O)c1oc2nc(-c3ccccc3)cc(-c3ccco3)c2c1N : -4.49

###

Listed below: inhibition values for each entry.
- Experiment: viability loss in Ba/F3 EpoR-JAK2V617F cells – cell-based, luminescence, JAK2V617F inhibitor project, primary screen (AID 1446);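 also: cytokine-independent growth of Ba/F3 cells driven by EpoR plus mutant JAK2; 0% = DMSO-treated cells and 100% = JAK inhibitor I control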
- Experimental Parameters: ATP luminescence, at 5.6 µM, active compounds read high
The campaign covered roughly 220,000 compounds. About 2,400 (1.1%) were called active. The sample holds actives, similar compounds and a random draw of the others, so the mix is not that of the screen.
Output spec: scalar in %, unitless text.

Previously resolved entries follow.
O=C(N/N=C/c1coc2ccccc2c1=O)c1cc2ccccc2o1	2.09
O=C(c1cn(-c2ccccc2)nc1-c1cc2ccccc2oc1=O)N1CCOCC1	-0.6
Nc1ccc2nn(-c3ccc(Cl)cc3)nc2c1	-0.91

// recorded inhibition for COc1ccc(-n2nnnc2-c2nc3ccccc3s2)cc1 : -2.25

// recorded inhibition for CCN(CC)c1ccc(NC(=O)c2ccc(Cl)nc2)cc1 : 81.4

// recorded inhibition for CC(=O)c1ccc(Oc2cc(C)nc(-n3nc(C)cc3C)n2)cc1 : 64.7

###

- Experiment: viability loss in Ba/F3 EpoR-JAK2V617F cells – cell-based, luminescence, JAK2V617F inhibitor project, primary screen (AID 1446);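 also: cytokine-independent growth of Ba/F3 cells driven by EpoR plus mutant JAK2; 0% = DMSO-treated cells and 100% = JAK inhibitor I control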
- Experimental Parameters: ATP luminescence, at 5.6 µM, active compounds read high
Screen size: about 220,000 compounds; about 2,400 (1.1%) were called active. What follows is part of a selection rich in actives, with near analogues and random picks from the rest.
Recorded Endpoint: inhibition (%)
Output spec: scalar in %, unitless text.

CCN(CC)c1ccc(/C=N/Nc2nc(C)cc(C)n2)c(O)c1	2.26
O=C(CSc1nnc(SCc2ccc(F)cc2)s1)Nc1ccc(C(=O)O)cc1	-3.83
O=C(O)CCC(=O)Nc1nc2ccc([N+](=O)[O-])cc2s1	3.19

// recorded inhibition for COc1ccccc1N1CCN(CCCCOc2ccc(F)cc2)CC1 : -1.67

// recorded inhibition for CCc1cccc(NC(=O)CCNS(=O)(=O)c2cccc3nonc23)c1 : -3.57

// recorded inhibition for CCCc1nc2ccccc2c(=O)n1NC(=O)c1c(O)c2ccccc2[nH]c1=O : 6.3

// recorded inhibition for COc1ccccc1N1CCN(Cc2ccc(OC)c3ccccc23)CC1 : 26.8

// recorded inhibition for CC(C)(C)c1ccc(Oc2ccc(N)cc2)cc1 : 33.3

// recorded inhibition for Cc1ccc(Oc2ccc(N)cc2)cc1 : 0.92

// recorded inhibition for O=C(NC(Nc1nc2ccc([N+](=O)[O-])cc2s1)(C(F)(F)F)C(F)(F)F)c1ccccc1 : 70.1
